Data origin: ChEMBL document CHEMBL3272189

Assay: Half life in 0.1 M sodium phosphate buffer at 50 ug/ml at pH 6.5
Type: physicochemical
reported.metric: half-life at 50 ug/ml (min)

Cc1nnc(SCC2=C(C(=O)O)N3C(=O)[C@@H](NC(=O)[C@H](N)c4ccccc4)[C@H]3SC2)s1 | 76
CC(=O)OCOC(=O)C1=C(CSc2nnc(C)s2)CS[C@@H]2[C@H](NC(=O)[C@H](N)c3ccccc3)C(=O)N12.Cl | 60

1: Cc1nnc(SCC2=C(C(=O)OCOC(=O)C(C)(C)C)N3C(=O)[C@@H](NC(=O)[C@H](N)c4ccccc4)[C@H]3SC2)s1.Cl
2: Cc1nnc(SCC2=C(C(=O)OC3OC(=O)c4ccccc43)N3C(=O)[C@@H](NC(=O)[C@H](N)c4ccccc4)[C@H]3SC2)s1.Cl (some centres undefined)
Q. Could you please tell me which of these two has the higher half-life at 50 ug/ml: 1 or 2 ? Indicate which entry you chose by stating its label.
A. 1
(1: 45 min, 2: 25 min)

====

Test: Drug excretion in Lai:COX (Standard)BR mouse urine at 17 mg/kg, sc after 80 mins
Assay type: ADME, organism-based
Design: dose 17 mg/kg, route subcutaneous
Conditions: read-out: Drug excretion
reported.metric: dose excreted at 80 min (%)
The reply should be a number in %, with the unit left off.

Q. Which dose excreted at 80 min reading was recorded for the compound Cc1nnc(SCC2=C(C(=O)O)N3C(=O)[C@@H](NC(=O)[C@H](N)c4ccccc4)[C@H]3SC2)s1 ?
A. 56.7

====

Assay: Drug excretion in Lai:COX (Standard)BR mouse urine at 17 mg/kg, po after 40 mins
Type: ADME, organism-based
Parameters: dose 17 mg/kg, route oral
Details: read-out: Drug excretion
reported.metric: dose excreted at 40 min (%)

Worked cases, answers included:
Cc1nnc(SCC2=C(C(=O)O)N3C(=O)[C@@H](NC(=O)[C@H](N)c4ccccc4)[C@H]3SC2)s1 | 8.4
CC(=O)OCOC(=O)C1=C(CSc2nnc(C)s2)CS[C@@H]2[C@H](NC(=O)[C@H](N)c3ccccc3)C(=O)N12.Cl | 32.5

P: Cc1nnc(SCC2=C(C(=O)OCOC(=O)C(C)(C)C)N3C(=O)[C@@H](NC(=O)[C@H](N)c4ccccc4)[C@H]3SC2)s1.Cl
Q: Cc1nnc(SCC2=C(C(=O)OC3OC(=O)c4ccccc43)N3C(=O)[C@@H](NC(=O)[C@H](N)c4ccccc4)[C@H]3SC2)s1.Cl (some centres undefined)
Q. Could you please tell me which of these two has the higher dose excreted at 40 min: P or Q ? Indicate which entry you chose by stating its label.
A. P
(P: 38.9%, Q: 22.1%)

====

Assay: Drug excretion in Lai:COX (Standard)BR mouse urine at 17 mg/kg, po after 20 mins
Type: ADME, organism-based
Set-up: dose 17 mg/kg, route oral
Conditions: read-out: Drug excretion
reported.metric: dose excreted at 20 min (%)

CC(=O)OCOC(=O)C1=C(CSc2nnc(C)s2)CS[C@@H]2[C@H](NC(=O)[C@H](N)c3ccccc3)C(=O)N12.Cl | 20.4
Cc1nnc(SCC2=C(C(=O)O)N3C(=O)[C@@H](NC(=O)[C@H](N)c4ccccc4)[C@H]3SC2)s1 | 2.8

I: Cc1nnc(SCC2=C(C(=O)OC3OC(=O)c4ccccc43)N3C(=O)[C@@H](NC(=O)[C@H](N)c4ccccc4)[C@H]3SC2)s1.Cl (some centres undefined)
II: Cc1nnc(SCC2=C(C(=O)OCOC(=O)C(C)(C)C)N3C(=O)[C@@H](NC(=O)[C@H](N)c4ccccc4)[C@H]3SC2)s1.Cl
Q. Could you please tell me which of these two has the higher dose excreted at 20 min: I or II ? Indicate which entry you chose by stating its label.
A. II

====

Experiment: Drug excretion in Lai:COX (Standard)BR mouse urine at 17 mg/kg, sc after 40 mins
Assay type: ADME, organism-based
Design: dose 17 mg/kg, route subcutaneous
Conditions: read-out: Drug excretion
reported.metric: dose excreted at 40 min (%)
The reply should be a number in %, with the unit left off.

Q. Which dose excreted at 40 min reading was recorded for the molecule Cc1nnc(SCC2=C(C(=O)O)N3C(=O)[C@@H](NC(=O)[C@H](N)c4ccccc4)[C@H]3SC2)s1 ?
A. 46.5

====

Assay: Half life in 0.1 M sodium phosphate buffer at 50 ug/ml at pH 7.5
Format: physicochemical
reported.metric: half-life at 50 ug/ml (min)

Worked cases, answers included:
Cc1nnc(SCC2=C(C(=O)OCOC(=O)C(C)(C)C)N3C(=O)[C@@H](NC(=O)[C@H](N)c4ccccc4)[C@H]3SC2)s1.Cl | 25
Cc1nnc(SCC2=C(C(=O)O)N3C(=O)[C@@H](NC(=O)[C@H](N)c4ccccc4)[C@H]3SC2)s1 | 54

a: Cc1nnc(SCC2=C(C(=O)OC3OC(=O)c4ccccc43)N3C(=O)[C@@H](NC(=O)[C@H](N)c4ccccc4)[C@H]3SC2)s1.Cl (some centres undefined)
b: CC(=O)OCOC(=O)C1=C(CSc2nnc(C)s2)CS[C@@H]2[C@H](NC(=O)[C@H](N)c3ccccc3)C(=O)N12.Cl
Q. Could you please tell me which of these two has the higher half-life at 50 ug/ml: a or b ? Indicate which entry you chose by stating its label.
A. b

====

Assay: Drug excretion in Lai:COX (Standard)BR mouse urine at 17 mg/kg, po after 60 mins
Type: ADME, organism-based
Design: dose 17 mg/kg, route oral
Settings: read-out: Drug excretion
reported.metric: dose excreted at 1 h (%)

CC(=O)OCOC(=O)C1=C(CSc2nnc(C)s2)CS[C@@H]2[C@H](NC(=O)[C@H](N)c3ccccc3)C(=O)N12.Cl | 33.1
Cc1nnc(SCC2=C(C(=O)OCOC(=O)C(C)(C)C)N3C(=O)[C@@H](NC(=O)[C@H](N)c4ccccc4)[C@H]3SC2)s1.Cl | 43.2
Cc1nnc(SCC2=C(C(=O)OC3OC(=O)c4ccccc43)N3C(=O)[C@@H](NC(=O)[C@H](N)c4ccccc4)[C@H]3SC2)s1.Cl (some centres undefined) | 35
Cc1nnc(SCC2=C(C(=O)O)N3C(=O)[C@@H](NC(=O)[C@H](N)c4ccccc4)[C@H]3SC2)s1 | 13.2

====

Test: Half life in 0.1 M sodium phosphate buffer at 50 ug/ml at pH 4.5
Type: physicochemical
reported.metric: half-life at 50 ug/ml (h)

Cc1nnc(SCC2=C(C(=O)OCOC(=O)C(C)(C)C)N3C(=O)[C@@H](NC(=O)[C@H](N)c4ccccc4)[C@H]3SC2)s1.Cl | 32
CC(=O)OCOC(=O)C1=C(CSc2nnc(C)s2)CS[C@@H]2[C@H](NC(=O)[C@H](N)c3ccccc3)C(=O)N12.Cl | 27
Cc1nnc(SCC2=C(C(=O)O)N3C(=O)[C@@H](NC(=O)[C@H](N)c4ccccc4)[C@H]3SC2)s1 | 47

====

Test: Drug absorption in Lai:COX (Standard)BR mouse assessed as compound remaining in gastrointestinal tract at 17 mg/kg, po after 20 mins
Format: ADME, organism-based
Design: dose 17 mg/kg, route oral
Details: read-out: Stability
reported.metric: remaining at 20 min (%)

Worked cases, answers included:
CC(=O)OCOC(=O)C1=C(CSc2nnc(C)s2)CS[C@@H]2[C@H](NC(=O)[C@H](N)c3ccccc3)C(=O)N12.Cl | 39.1
Cc1nnc(SCC2=C(C(=O)O)N3C(=O)[C@@H](NC(=O)[C@H](N)c4ccccc4)[C@H]3SC2)s1 | 81.2

I: Cc1nnc(SCC2=C(C(=O)OCOC(=O)C(C)(C)C)N3C(=O)[C@@H](NC(=O)[C@H](N)c4ccccc4)[C@H]3SC2)s1.Cl
II: Cc1nnc(SCC2=C(C(=O)OC3OC(=O)c4ccccc43)N3C(=O)[C@@H](NC(=O)[C@H](N)c4ccccc4)[C@H]3SC2)s1.Cl (some centres undefined)
Q. Could you please tell me which of these two has the higher remaining at 20 min: I or II ? Indicate which entry you chose by stating its label.
A. II
(II: 59%, I: 40.5%)

====

Assay: Drug excretion in Lai:COX (Standard)BR mouse urine at 17 mg/kg, po after 120 mins
Type: ADME, organism-based
Parameters: dose 17 mg/kg, route oral
Conditions: read-out: Drug excretion
reported.metric: dose excreted at 2 h (%)

Cc1nnc(SCC2=C(C(=O)OCOC(=O)C(C)(C)C)N3C(=O)[C@@H](NC(=O)[C@H](N)c4ccccc4)[C@H]3SC2)s1.Cl | 41.5
Cc1nnc(SCC2=C(C(=O)O)N3C(=O)[C@@H](NC(=O)[C@H](N)c4ccccc4)[C@H]3SC2)s1 | 14.1
CC(=O)OCOC(=O)C1=C(CSc2nnc(C)s2)CS[C@@H]2[C@H](NC(=O)[C@H](N)c3ccccc3)C(=O)N12.Cl | 36.8

====

Test: Drug absorption in Lai:COX (Standard)BR mouse assessed as compound remaining in gastrointestinal tract at 17 mg/kg, po after 40 mins
Assay type: ADME, organism-based
Design: dose 17 mg/kg, route oral
Conditions: read-out: Stability
reported.metric: remaining at 40 min (%)

Cc1nnc(SCC2=C(C(=O)O)N3C(=O)[C@@H](NC(=O)[C@H](N)c4ccccc4)[C@H]3SC2)s1 | 67.5
Cc1nnc(SCC2=C(C(=O)OC3OC(=O)c4ccccc43)N3C(=O)[C@@H](NC(=O)[C@H](N)c4ccccc4)[C@H]3SC2)s1.Cl (some centres undefined) | 35
Cc1nnc(SCC2=C(C(=O)OCOC(=O)C(C)(C)C)N3C(=O)[C@@H](NC(=O)[C@H](N)c4ccccc4)[C@H]3SC2)s1.Cl | 25
CC(=O)OCOC(=O)C1=C(CSc2nnc(C)s2)CS[C@@H]2[C@H](NC(=O)[C@H](N)c3ccccc3)C(=O)N12.Cl | 31.5
